Target: PDGF-R (Rattus norvegicus, UniProt Q05030)
Sequence (Q05030 32-1097): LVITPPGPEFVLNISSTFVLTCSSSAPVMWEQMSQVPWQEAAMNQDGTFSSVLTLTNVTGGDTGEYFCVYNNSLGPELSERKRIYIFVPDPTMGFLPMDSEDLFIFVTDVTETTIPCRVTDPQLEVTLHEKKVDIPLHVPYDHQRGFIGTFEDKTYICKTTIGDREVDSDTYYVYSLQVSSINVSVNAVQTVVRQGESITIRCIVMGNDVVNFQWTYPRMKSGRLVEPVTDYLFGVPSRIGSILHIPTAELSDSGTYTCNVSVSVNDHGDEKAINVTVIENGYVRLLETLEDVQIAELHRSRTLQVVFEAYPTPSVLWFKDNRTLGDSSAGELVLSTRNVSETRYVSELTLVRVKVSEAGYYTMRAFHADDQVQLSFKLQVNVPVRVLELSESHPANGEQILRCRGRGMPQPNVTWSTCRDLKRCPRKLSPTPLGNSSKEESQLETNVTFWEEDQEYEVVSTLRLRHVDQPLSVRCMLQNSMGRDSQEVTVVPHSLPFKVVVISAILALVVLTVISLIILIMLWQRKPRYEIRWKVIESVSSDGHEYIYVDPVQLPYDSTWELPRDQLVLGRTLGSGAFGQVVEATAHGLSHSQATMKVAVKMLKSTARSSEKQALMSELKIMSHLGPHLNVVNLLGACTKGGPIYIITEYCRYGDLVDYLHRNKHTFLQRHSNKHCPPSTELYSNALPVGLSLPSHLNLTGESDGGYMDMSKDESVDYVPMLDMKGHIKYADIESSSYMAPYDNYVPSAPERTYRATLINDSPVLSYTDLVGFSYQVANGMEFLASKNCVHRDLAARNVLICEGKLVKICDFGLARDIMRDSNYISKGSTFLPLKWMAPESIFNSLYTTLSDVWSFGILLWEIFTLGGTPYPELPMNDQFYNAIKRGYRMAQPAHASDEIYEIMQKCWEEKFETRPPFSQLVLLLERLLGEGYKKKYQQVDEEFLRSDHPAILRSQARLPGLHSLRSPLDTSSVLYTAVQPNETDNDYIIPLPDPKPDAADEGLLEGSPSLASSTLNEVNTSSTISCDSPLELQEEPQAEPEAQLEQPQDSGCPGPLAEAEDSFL
Experiment: PDGF-R autophosphorylation inhibition screening (dot plotting), vascular smooth muscle cells, PDGF-BB
Assay type: cell-based
Settings: figure in parentheses in −( ); at 1000 nM; read-out: PDGF (D) inhibition (%) at 1000 nM
Property: inhibition at 1 µM
// return the numeric value with its unit appended

A selection of reference data follows.
> print(dat)
                               query.smiles  measured.result
1  COc1cc2nccc(Oc3ccc(NC(=S)NC(=O)c4ccc([N+](=O)[O-])cc4)c(C)c3)c2cc1OC              15%
2  COc1cc2nccc(Oc3ccc(S(=O)(=O)CCOc4ccccc4F)cc3)c2cc1OC              10%

For each listed entry, give its inhibition at 1 µM.
1. COc1cc2nccc(Oc3ccc(NC(=S)NC(=O)c4ccc([N+](=O)[O-])cc4)c(C)c3C)c2cc1OC
2. CCCCCCCCCCCC(=O)NC(=S)Nc1ccc(Oc2ccnc3cc(OC)c(OC)cc23)cc1
3. COc1cccc(OCCS(=O)(=O)c2ccc(Oc3ccnc4cc(OC)c(OC)cc34)cc2)c1

1. 50%
2. 34%
3. 23%

Give inhibition at 1 µM for each of the items listed below.
1. COc1cc2nccc(Oc3ccc(S(=O)(=O)CCOc4ccc(C)cc4)cc3)c2cc1OC
2. CCCCCCCCCCCC(=O)NC(=S)Nc1ccc(Oc2ccnc3cc(OC)c(OC)cc23)cc1F
3. COc1cc2nccc(Oc3ccc(NC(=S)NC(=O)c4ccc(C)cc4)c(C)c3)c2cc1OC

23%
17%
30%

---

Exercise: for every item that follows, state its recorded IC50.
Molecular target: PDGF-Ra (Homo sapiens, UniProt P16234)
Construct: host or cells: G-292 human osteosarcoma cells
Sequence (P16234 24-1089): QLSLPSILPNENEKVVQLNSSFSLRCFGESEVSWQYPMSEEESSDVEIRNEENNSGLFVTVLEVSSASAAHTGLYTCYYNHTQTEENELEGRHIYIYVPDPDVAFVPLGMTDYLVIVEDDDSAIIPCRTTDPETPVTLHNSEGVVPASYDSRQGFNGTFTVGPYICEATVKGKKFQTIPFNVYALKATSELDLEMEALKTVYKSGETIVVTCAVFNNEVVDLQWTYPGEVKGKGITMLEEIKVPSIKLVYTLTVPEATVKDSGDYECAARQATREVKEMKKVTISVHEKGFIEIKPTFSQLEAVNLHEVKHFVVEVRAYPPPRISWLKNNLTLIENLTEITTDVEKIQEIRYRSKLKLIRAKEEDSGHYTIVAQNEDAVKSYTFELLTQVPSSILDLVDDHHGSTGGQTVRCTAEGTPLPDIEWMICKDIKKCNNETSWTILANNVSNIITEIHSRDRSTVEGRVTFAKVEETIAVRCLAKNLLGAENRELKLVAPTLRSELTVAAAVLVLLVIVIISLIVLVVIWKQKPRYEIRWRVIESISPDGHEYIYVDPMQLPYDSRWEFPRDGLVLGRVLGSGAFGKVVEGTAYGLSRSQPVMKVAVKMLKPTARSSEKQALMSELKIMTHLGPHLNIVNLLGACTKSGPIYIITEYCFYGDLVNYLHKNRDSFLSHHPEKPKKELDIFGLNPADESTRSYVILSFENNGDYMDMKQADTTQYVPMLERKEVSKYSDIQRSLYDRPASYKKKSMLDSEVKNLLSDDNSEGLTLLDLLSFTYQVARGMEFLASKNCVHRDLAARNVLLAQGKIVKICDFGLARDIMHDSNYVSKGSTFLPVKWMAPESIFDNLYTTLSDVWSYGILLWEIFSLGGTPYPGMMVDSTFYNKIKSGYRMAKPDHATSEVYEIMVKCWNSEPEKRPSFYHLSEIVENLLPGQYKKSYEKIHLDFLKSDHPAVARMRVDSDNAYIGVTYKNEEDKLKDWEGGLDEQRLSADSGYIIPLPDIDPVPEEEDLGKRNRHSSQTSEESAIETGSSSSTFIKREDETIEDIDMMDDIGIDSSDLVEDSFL
Experiment: Inhibitory activity against PDGF-Ra phosphorylation by PDGF-AA stimulation using G292
Assay type: cell-based
Settings: > means inhibition at indicated concentration not more than 50%, < and << not less than 50%; read-out: PDGF (E) IC50
Answers are plain numbers, in nM.

> print(dat)
                                   compound  property  measure.unit  measured.result
1  CCN(CCNC(=O)Nc1ccc(Oc2ccnc3cc(OC)c(OC)cc23)cc1[N+](=O)[O-])c1cccc(C)c1      IC50            nM               10
2  COc1cc2nccc(Oc3ccc(NC(=S)NC(=O)c4ccc(C)cc4C)cc3Cl)c2cc1OC      IC50            nM               48
3  COc1cc2nccc(Oc3ccc(NC(=O)NC4CCN(Cc5ccccc5C)C4)cc3)c2cc1OC (centres unmarked)      IC50            nM               45
4  CCN(CC)CCNC(=S)Nc1ccc(Oc2ccnc3cc(OC)c(OC)cc23)c(C)c1C      IC50            nM               19

Let us examine a further case.
State, in one line, measured IC50 of `COc1cc2nccc(Oc3ccc(NC(=O)NN4CCCCC4)c(C)c3C)c2cc1OC`
51

---

Molecular target: PDGF-Ra (Homo sapiens)
Construct: host or cells: G-292 human osteosarcoma cells
Experiment: Inhibitory activity against PDGF-Ra phosphorylation by PDGF-AA stimulation using G292
Assay type: cell-based
Settings: G292; figure within parentheses in >100( ); at 100 nM; read-out: PDGF (E) inhibition (%) at 100 nM
Respond with true for inhibition at 0.1 µM values of 20% and above, false for values below.

Illustrative cases are given below, each with its answer.
> print(dat)
                                   compound    cat
1  COc1cc2ncnc(Oc3ccc(OCC(=O)N4CCC(N5CCCCC5)CC4)cc3)c2cc1OC  false
2  COc1cc2nccc(Oc3cc(C)c(NC(=S)NCCCN4CCN(C)CC4)cc3C)c2cc1OC  false
3  COc1cc2ncnc(Oc3ccc(NC(=O)Oc4ccccc4C#N)cc3)c2cc1OC   true
4  COc1cc2nccc(Oc3cc(C)c(NC(=S)NCCN4CCCCC4)cc3C)c2cc1OC   true
5  COc1cc2ncnc(Oc3ccc(NC(=O)N4CCN(c5ccccc5)CC4)cc3)c2cc1OC  false
6  COc1cc2nccc(Oc3ccc(NC(=O)OC(C#N)c4ccccc4)cc3)c2cc1OC (centres unmarked)  false

State whether the measured inhibition at 0.1 µM reaches 20%, counting equality as reaching it, for `COC(=O)COc1ccc(Oc2ncnc3cc(OC)c(OC)cc23)cc1`
false

Threshold query (inhibition at 0.1 µM >= 20%) on COc1cc2ncnc(Oc3ccc(NC(=O)NC4CCN(Cc5ccc(C(C)(C)C)cc5)C4)c([N+](=O)[O-])c3)c2cc1OC (centres unmarked)
false
